experiment: chemical genetic growth profiling, strain panel (AID 1159580);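 also: tested at 20 µM; growth read once vehicle control cultures reached saturation at 30 °C; 1 = growth at the plate median or of vehicle wells; lower values mean less growth of the strain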; settings: S. cerevisiae deletion strains, growth OD, locus YER015W, strain faa2, hits give low values
In all, about 5,500 compounds went through this assay and about 2,000 (36%) were called active. Roughly 18% stayed inconclusive and do not appear here. This is one part of the list.
# normalized growth per record follows
measurement-label: normalized growth

>>> df
                                    compound  measurement_label  reported
 0  CN(Cc1cnc2nc(N)nc(N)c2n1)c1ccc(C(=O)NC(CCC(=O)O)C(=O)O)cc1 (stereo not drawn)  normalized growth     0.958
 1  CCC(COC(=O)c1cc(OC)c(OC)c(OC)c1)(c1ccccc1)N(C)C (stereo not drawn)  normalized growth     0.986
 2  Nc1nc2c(c(=O)[nH]1)N(C=O)C(CNc1ccc(C(=O)N[C@@H](CCC(=O)O)C(=O)O)cc1)CN2 (stereo partly drawn)  normalized growth      1.01
 3  C[C@H](COc1ccccc1)N[C@H](C)[C@H](O)c1ccc(O)cc1  normalized growth         1
 4  CC[C@@H]1[C@@H](O)N2C3C[C@H]1C1C(O)[C@]4(C[C@@H]12)c1ccccc1N(C)[C@@H]34 (stereo partly drawn)  normalized growth      1.02
 5  CC(Cc1ccc(O)c(O)c1)(NN)C(=O)O (stereo not drawn)  normalized growth     0.984
 6  Nc1nc2ncc(CNc3ccc(C(=O)N[C@@H](CCC(=O)O)C(=O)O)cc3)nc2c(=O)[nH]1  normalized growth         1
 7  C[C@@H]1CC2C3CCC4=CC(=O)C=C[C@]4(C)[C@@]3(F)[C@@H](O)C[C@]2(C)[C@@]1(O)C(=O)COP(=O)(O)O (stereo partly drawn)  normalized growth      0.98
 8  CC(COc1ccccc1)N(CCCl)Cc1ccccc1 (stereo not drawn)  normalized growth     0.993
 9   CCOP(=S)(OCC)Oc1ccc2c(C)c(Cl)c(=O)oc2c1  normalized growth     0.966
10  O=C1CN(/N=C\c2ccc([N+](=O)[O-])o2)C(=O)N1  normalized growth     0.961
11                 O=c1cccc2n1C[C@H]1CNCC2C1  normalized growth      1.01
12  COc1ccccc1OCC(O)CN1CCN(CC(=O)Nc2c(C)cccc2C)CC1 (stereo not drawn)  normalized growth      1.01
13  O=C1N=C(O)CN1/N=C\c1ccc(-c2ccc([N+](=O)[O-])cc2)o1  normalized growth     0.968
14                              NCCCCN=C(N)N  normalized growth      1.03
15              C[C@](N)(Cc1ccc(O)cc1)C(=O)O  normalized growth         1
16  O=C(NC(=O)c1c(F)cccc1F)Nc1cc(Cl)c(OC(F)(F)C(F)C(F)(F)F)cc1Cl (stereo not drawn)  normalized growth     0.983
17                         NC(=O)c1ccc(N)nc1  normalized growth     0.997
